# solubility kinetic at 24 h annotations
# ASSAY METHOD TEXT: Aqueous solubility in buffered solutions, HPLC (Example 2)
# Assay type: physicochemical
# ASSAY CONTEXT: sodium bicarbonate buffer in water for injection/5% dextrose, kinetic from dmso stock, pH 9.0, 50 mM sodium bicarbonate, ambient temperature, read-out: pH 9.0 aqueous solubility
The reply should be a number in µg/mL, with the unit left off.

Look over these answered cases.
- STRUCTURE SMILES STRING: "C[C@@H](C(=O)Nc1cccc(-c2cnc(N3CCC[C@H]3C(F)(F)F)nc2)n1)n1cnc2c1c(=O)n(C)c(=O)n2C"
  RESULT UNIT: "µg/mL"
  MEASURED: 49
- STRUCTURE SMILES STRING: "C[C@H]1CCCN1c1ncc(-c2cncc(NC(=O)[C@H](C)n3cnc4c3c(=O)n(C)c(=O)n4C)n2)cn1"
  RESULT UNIT: "µg/mL"
  MEASURED: 48
- STRUCTURE SMILES STRING: "C[C@@H](C(=O)Nc1cncc(-c2cnc(N3CCCC3(C)C)nc2)n1)n1cnc2c1c(=O)n(C)c(=O)n2C"
  RESULT UNIT: "µg/mL"
  MEASURED: 6

Next:
Problem: Which solubility kinetic at 24 h reading was recorded for the compound `C[C@@H](C(=O)Nc1cncc(-c2cnc(N3CCC[C@H]3C(F)(F)F)nc2)n1)n1cnc2c1c(=O)n(C)c(=O)n2C` ?
Result: 7
